Assay: physchem
Conditions: organic solvent or mixture
readout_kind: solubility (µg/mL)

>  <chem_smiles>
NCCCC[C@H](N)C(=O)O

>  <numeric_result>
2000

$$$$
